Recorded values, source patent US20220259593A1.

test system: K562 CRISPRi cells; test: Constant region variant library pooled growth screen, K562; format: cell-based, human; details: sgRNA constant region variants; activity relative to the original, un-modified constant region cr995
Returns one of fulfilled or not fulfilled; fulfilled when Mean relative activity is >= 0.04.

cr355 (nucleic acid, listed as DNA, chemistry not fully specified) guide: GTTTAAGAGCTAAGCTGGAAACAGCATAGCAAGGTTAAATAAGGCTAGTCCGTTATCAACTAGAAATAGTGGCACCGAGTCGGTGCT
not fulfilled
cr513 (nucleic acid, listed as DNA, chemistry not fully specified) guide: GTTTAAGAGCTAAGCTGGAAACAGCATAGCAACTTTAAATAAGGCTAGTCCGTTATCACCTTGAAAAAGGGGCACCGAGTCGGTGCT
fulfilled
cr849 (nucleic acid, listed as DNA, chemistry not fully specified) guide: GTTTAAGAGCTAAGCTGGAAACAGCATAGCAACGTTAAATAAGGCTAGTCCGTTATCAACTTGAAAAAGTGGCACCGAGTCGGTGCT
not fulfilled

Exam item: Does the molecule cr442 (nucleic acid, listed as DNA, chemistry not fully specified) guide: GTTTAAGAGCTAAGCTGGAAACAGCATAGCAAGCTTAAATAAGGCTAGTCCGTTATCAACCTGAAAAGGTGGCACCGAGTCGGTGCT have recorded Mean relative activity that is 0.04 or more?
Marked response: fulfilled

Exam item: Does the molecule cr574 (nucleic acid, listed as DNA, chemistry not fully specified) guide: GTTTAAGAGCTAAGCTGGAAACAGCATAGCAAGTTTCAATAAGGCTAGTCCGTTATCAACTTGAAAAAGTGGCACCGAGTCGGTGCT have recorded Mean relative activity that is 0.04 or more?
Marked response: not fulfilled

Exam item: Does the molecule cr342 (nucleic acid, listed as DNA, chemistry not fully specified) guide: GTTTAAGAGCTAAGCTGGAAACAGCATAGCAAGTTTAAATAAGGCTAGTCCGTTATTAACTTGATAAAGTGGCACCGAGTCGGTGCT have recorded Mean relative activity that is 0.04 or more?
Marked response: fulfilled

Exam item: Does the molecule cr506 (nucleic acid, listed as DNA, chemistry not fully specified) guide: GTTTAAGAGCTAAGCTGGAAACAGCATAGCAAGTTTAAATAAGCCTAGTGCGTTATCAACTTGAAAAAGTGGGACCGAGTCGGTCCT have recorded Mean relative activity that is 0.04 or more?
Marked response: fulfilled

Exam item: Does the molecule cr080 (nucleic acid, listed as DNA, chemistry not fully specified) guide: TTTTTAGAGCTAAGCTGGAAACAGCATAGCAAGTTTAAATAAGGCTAGTCCGTTATCAACTTGAAAAAGTGGCACCGAGTCGGTGCT have recorded Mean relative activity that is 0.04 or more?
Marked response: not fulfilled
